- TARGET_OR_TEST_SYSTEM: Growth hormone secretagogue receptor type 1 (Homo sapiens)
- Sequence (Q92847 whole entry): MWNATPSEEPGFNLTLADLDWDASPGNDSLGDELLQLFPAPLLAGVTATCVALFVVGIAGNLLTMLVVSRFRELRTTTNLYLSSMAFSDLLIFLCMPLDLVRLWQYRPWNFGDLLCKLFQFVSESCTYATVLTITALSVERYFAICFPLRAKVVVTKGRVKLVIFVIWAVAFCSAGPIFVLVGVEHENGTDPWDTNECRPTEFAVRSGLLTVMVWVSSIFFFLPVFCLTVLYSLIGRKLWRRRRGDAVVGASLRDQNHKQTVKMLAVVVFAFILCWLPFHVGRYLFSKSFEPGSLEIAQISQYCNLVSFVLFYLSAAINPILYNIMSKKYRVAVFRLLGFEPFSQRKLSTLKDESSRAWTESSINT
- PROCEDURE_DETAILS: Inhibition of human GHS-R1a
ASSAY_READOUT: IC50 (nM)

Solved entries (count: 8):
CCCCCCNC(=O)Nc1ccc(S(=O)(=O)Nc2ccc(CN)cc2)cc1 ... 1720
CC(C)(N)Cc1ccc(NS(=O)(=O)c2ccc(NC(=O)NCc3ccccc3)cc2)cc1 ... 128
CCCCCCNC(=O)Nc1ccc(S(=O)(=O)Nc2ccc(CC(C)(C)NCC(F)(F)F)cc2)cc1 ... 682
CC(C)(N)Cc1ccc(NS(=O)(=O)c2ccc(NC(=O)NC(C)(C)c3cccc4ccccc34)cc2)cc1 ... 2
CCCCCCNC(=O)Nc1ccc(S(=O)(=O)Nc2ccc(CC(C)(C)N)cc2)cc1 ... 46
CCCCCCNC(=O)Nc1ccc(S(=O)(=O)Nc2cccc(CCCN)c2)cc1 ... 429
CCCCCCNC(=O)Nc1ccc(S(=O)(=O)Nc2ccc(CCN)cc2)cc1 ... 272
Cc1ccc(NC(=O)Nc2ccc(S(=O)(=O)Nc3ccc(CC(C)(C)N)cc3)cc2)cc1 ... 77

1 = CC(C)(N)Cc1ccc(NS(=O)(=O)c2ccc(NC(=O)Nc3ccc(C(C)(C)C)cc3)cc2)cc1
2 = CCCCCCCNC(=O)Nc1ccc(S(=O)(=O)Nc2ccc(CC(C)(C)N)cc2)cc1
3 = CCCCCCNC(=O)Nc1ccc(S(=O)(=O)Nc2ccccc2)cc1
(Q) // ranking: key=IC50, reverse=True Reply with the labels, ordered as the question asks.
(A) 3, 2, 1
(3: 4300 nM, 2: 97 nM, 1: 16 nM)
